B1: ZNF263 (parent)
chain: QRTHTGEKPYKCPECGEIFAHSSN

- Variants of: B1
- experimental protocol: protein stability index of a GFP-peptide fusion (GPS, HEK-293T) (PSI 1-6); higher = more stable;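 further: lentivirally expressed fusions sorted by FACS into six bins by GFP to DsRed ratio, PSI derived from sequencing read proportions per bin multiplied by bin number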
- assay setup: c terminus: a fixed tail appended
endpoint label: protein stability index
Please give only the number in your answer, with no unit.

stdin: Specify protein stability index for K11T and stop.
stdout: 2.98

stdin: Please look at this variant and report its protein stability index: R2Y
stdout: 3.02

stdin: Report protein stability index for G6M
stdout: 3.04

stdin: Query protein stability index for S22G
stdout: 2.92

stdin: Please give the documented protein stability index of H21A
stdout: 2.95
